System: U251 CNS
Method: NCI tumour cell line growth inhibition, 48 h
Below: a set of entries, each annotated with reported TGI.

COc1ccc(C2=Nc3ccccc3N=C(SC)C2)cc1 ... > 100 µM
C=C(C)C(=O)Nc1ccc(-c2c(-c3ccc(Oc4nccc(C)n4)c(F)c3)c3c(N)ncnc3n2C)cc1 ... 25 µM
CCOC(=O)/C=C1/SC(=Nc2ccc(C#N)cc2)N(Cc2ccco2)C1=O ... 4.06 µM
CCS(=O)(=O)c1ccc(OC)c(Nc2ncc(-c3cccc(F)c3)o2)c1 ... > 25 µM

Input line: API: value(readout=TGI, system=U251 CNS) for record "O=S(O)c1cc(Cl)c(O)c(Cl)c1"
Output line: > 100 µM

Input line: Give recorded TGI with U251 CNS for the following compound: N#Cc1ccc(C2SCc3nc4ccccc4n32)cc1 (stereo unspecified)
Output line: > 100 µM

Input line: Which TGI is reported with U251 CNS for this entry: "Oc1[nH]c2ccccc2c1C=Nc1ccc(-n2cncn2)cc1" ?
Output line: > 25 µM

Input line: Give TGI (U251 CNS) of the following compound: "COc1cc(C(=O)n2nc(N)c3c(C)cc(C)nc32)cc(OC)c1OC"
Output line: > 100 µM

Input line: Query the reported TGI for U251 CNS; item: "CC#COS(=O)(=O)c1ccc(C)cc1"
Output line: > 100 µM

Input line: Any idea what TGI came out for COc1ccc2nc3ccccc3c(NCCNCC(C)O)c2c1 (stereo unspecified) on U251 CNS?
Output line: 4.94 µM

Input line: GET /values?readout=TGI&system=U251 CNS&item= "CCNC(=S)NNC(=O)c1ccccc1Nc1ccccc1C(=O)NNC(=S)NCC"
Output line: > 100 µM

* * *

# TGI listing for each entry below
System: OVCAR-8 ovarian
Method: NCI tumour cell line growth inhibition, 48 h

Here's what some known entries look like.
COc1ccc(C(=O)C(C(=O)C(=O)NCCCNC(=O)C(=O)C(C(=O)c2ccc(OC)cc2)c2ccc(OC)cc2)c2ccc(OC)cc2)cc1 (stereo unspecified) ... > 100 µM
NS(=O)(=O)c1ccc(N=Nc2c[nH]c(=O)c(O)c2)cc1 ... > 100 µM
COc1ccc(-c2oc3cc(O)c(OC)c(O)c3c(=O)c2O)cc1 ... > 75.3 µM

Input line: // returns reported TGI for input "O=C1C=CC(=O)c2c1nc(CBr)[nH]c2=O"
Output line: > 100 µM

Input line: # input compound: "COc1ccc(/C=C/C(=O)c2ccc(Br)cc2)cc1" ; wanted: its TGI
Output line: > 100 µM

Input line: Which measured TGI value corresponds to "COc1ccc([I+]c2ccc(OC)cc2)cc1" ?
Output line: > 100 µM

* * *

Tested on: RXF 393 renal
Method: NCI tumour cell line growth inhibition, 48 h
Examples of molecules with documented TGI follow.
Expressed in µM, but write only the number.

Sample records with TGI:
CC1=C(C(=O)Nc2ccc(Cl)c(Cl)c2)C(c2cccc(Cl)c2)NC(=S)N1 (stereo unspecified) ... 23.6
Cc1ccnc(Nc2[nH]c(C(=O)c3ccc(Cl)cc3)c(N)c2C(=S)Nc2ccccc2)c1 ... 32.5

Input line: Fill blank: measured TGI of the molecule O=C(NC1=C(Cl)C(=O)c2ccccc2C1=O)C(=O)C(C(=O)c1ccc2ccccc2c1)C1OC(=O)c2ccccc21 (stereo unspecified) is ____.
Output line: 12.8

Input line: Recorded TGI of "CCCCCCCCN=C(NCCCCCCCC)SCc1cccc2ccccc12" , please.
Output line: 2.78

* * *

System: A549 NSCLC
Method: NCI tumour cell line growth inhibition, 48 h
TGI by entry:

Below, 5 molecules whose answers are already recorded.
COc1ccccc1C(=O)OCC1CCCN2CCCCC12 (centres undefined) ... > 100 µM
COc1cccc2c1C(=O)c1c(O)c3c(c(O)c1C2=O)C[C@@](O)(C(=O)CO)CC3OC1CC(NCCOCC(OC(C)=O)OC(C)=O)C(O)C(C)O1 (some centres undefined) ... > 100 µM
COc1ccc(-c2[nH]ncc2Nc2cc(OC)c(OC)c(OC)c2)cc1 ... > 100 µM
COc1cc(C(=O)O[C@H](C(=O)NCCCCNC(=O)[C@@H](OC(=O)c2cc(OC)cc3c(C)cccc23)[C@]2(C)CO2)[C@]2(C)CO2)c2cccc(C)c2c1 ... 0.699 µM
CCOC(=O)C1C(=O)CC(=O)C2CCCCC21 (centres undefined) ... > 100 µM

Input line: Which measured TGI value corresponds to "Brc1ccc(-c2cc3c(cc2C2SCCS2)OCO3)cc1" ?
Output line: > 100 µM

Input line: Give the measured TGI of "COc1ccc(C2=NNC(=O)c3ccccc3N2c2nc(-c3cccs3)nc3cc(OC)c(OC)cc23)cc1" .
Output line: > 100 µM

Input line: Which TGI reading was recorded for the molecule CC(NNC(=O)c1ccncc1)c1cccc(C(F)(F)F)c1 (centres undefined) ?
Output line: > 100 µM

Input line: # input molecule: "Cc1cc(Br)ccc1N=Nc1c(C)nn(-c2ccccc2)c1-c1ccccc1" ; wanted: its TGI
Output line: > 100 µM

Input line: // lookup TGI for CC#CCCCC1(C)CCNC1=S (centres undefined)
Output line: > 10 µM

Input line: What does the data say about its TGI? Entry: "COC(=O)c1c2c(cc3c1CC1(Cc4ccccc4C1)C3)CCC2"
Output line: > 100 µM

Input line: Entry under review: "CSc1ccc2c(c1)c(CCN)c(C)n2Cc1ccccc1Cl" . Reported TGI?
Output line: 3.18 µM

Input line: Could you share which TGI value was measured for "C/C(=N\NC(N)=S)c1nc2ncccc2[nH]1" ?
Output line: > 100 µM

Input line: What measured TGI goes with "CCSc1nc(N/N=C/c2cccs2)c2cnn(CO)c2n1" ?
Output line: 24.1 µM

Input line: Form field: reported TGI of Fc1ccc(C(OCCN2CCC3CCC(C2)N3C/C=C/c2cccs2)c2ccc(F)cc2)cc1 (centres undefined)
Output line: 24.3 µM

Input line: Name the reported TGI value associated with the molecule COC(=O)C12Oc3ccc(-c4ccc5c(c4O)C(O)=C4C(=O)CC(C)C(O)C4(C(=O)OC)O5)c(O)c3C(O)=C1C(=O)CC(C)C2O (centres undefined)
Output line: > 100 µM

* * *

Collected TGI values appear next to each entry.
Tested on: LOX IMVI melanoma
Method: NCI tumour cell line growth inhibition, 48 h

Would you please look over these solved cases?
COc1ccc(-c2nnc3n(C)c4ccccc4n3c2=O)cc1 ... > 100 µM
O=C(CC(C(=O)c1cccs1)c1ccsc1)c1ccc(Cl)s1 (stereo unspecified) ... > 100 µM
Cc1ccc(S(=O)(=O)N(CCNC(=O)c2cccc(O)c2O)c2cc3c4c(c2)Oc2cccc5c2C4(C)c2c(cccc2O3)O5)cc1 ... > 100 µM
CC(=O)[C@@]1(c2ccccc2)CC2(CCN(C)CC2)O[C@H]1C ... > 100 µM

Input line: Can you share its TGI? I mean this compound: "COc1cc(C(=O)O[C@H](C(=O)NCCCCNC(=O)[C@@H](OC(=O)c2cc(OC)cc3c(C)cccc23)[C@]2(C)CO2)[C@]2(C)CO2)c2cccc(C)c2c1"
Output line: < 0.01 µM

Input line: Name the reported TGI value associated with the compound COC(=O)c1ccccc1C1CN=NC12Cc1ccc3c(c1C2=O)CCC3 (stereo unspecified)
Output line: > 100 µM

Input line: Dear colleague, I am looking for the recorded TGI of the following compound: "COc1ccc(-c2[nH]ncc2Nc2cc(OC)c(OC)c(OC)c2)cc1"
Output line: > 100 µM

Input line: Suppose we examine the compound "CCN(C(=O)N[C@H](C(=O)N[C@@H](CSC)C(=O)N[C@@H](C)C(=O)OC)C(C)C)c1ccccc1" ; what TGI value has been reported?
Output line: 23.5 µM

Input line: Query: TGI; subject: CCOC(=O)C1C(=O)CC(=O)C2CCCCC21 (stereo unspecified)
Output line: > 100 µM

* * *

Test system: SF-539 CNS
Method: NCI tumour cell line growth inhibition, 48 h
Value Kind: TGI

Consider the following illustrative entries.
CC12O[C@H](C[C@@H](OC(=O)CCC(=O)O)[C@H]1O)n1c3ccccc3c3c4c(c5c6ccccc6n2c5c31)C(=O)NC4=O ... 3.97 µM
COc1ccc(-c2oc3cc(O)c(OC)c(O)c3c(=O)c2O)cc1 ... 41.6 µM
COc1ccc(/C=C/C(=O)c2ccc(Br)cc2)cc1 ... > 100 µM
CCCCCCCCCCCC[N+]12CC[N+](C)(CC1)CC2 ... > 100 µM

Continue with the compound presented below.
Input line: Fill blank: measured TGI of the compound "O=c1[nH]cnc2c1cnn2Cc1cnnn1COCCO" is ____.
Output line: > 100 µM

* * *

Tested on: K-562 leukemia
Method: NCI tumour cell line growth inhibition, 48 h; in the data active = GI50 below about 0.43 µM; inactive = the rest
Parameter call: string, one of class 1 (active), class 0 (inactive)

Worked examples, 2 molecules total:
O=C(CI)Nc1ccc(Br)cc1 ... class 0
COc1ccc([I+]c2ccc(OC)cc2)cc1 ... class 0

Input line: Returns: the outcome recorded for "COc1ccc(-c2[nH]ncc2Nc2cc(OC)c(OC)c(OC)c2)cc1" in this assay.
Output line: class 1

Input line: Kindly provide the recorded test outcome for the following molecule: "O=C(Oc1c(Cl)cc(Cl)cc1Cl)c1ccccc1Nc1ccnc(C(F)(F)F)c1"
Output line: class 0

Input line: Dear all, I need the recorded test outcome for "Clc1ccc(-c2nc(NCc3ccco3)c3ccccc3n2)c(Cl)c1" , thank you.
Output line: class 0

All values here come from PubChem BioAssay (NCI).
